Values were extracted from patent US20240270821A1.

- tgt: hGLP-1R (Homo sapiens)
- Sequence (P43220 24-463): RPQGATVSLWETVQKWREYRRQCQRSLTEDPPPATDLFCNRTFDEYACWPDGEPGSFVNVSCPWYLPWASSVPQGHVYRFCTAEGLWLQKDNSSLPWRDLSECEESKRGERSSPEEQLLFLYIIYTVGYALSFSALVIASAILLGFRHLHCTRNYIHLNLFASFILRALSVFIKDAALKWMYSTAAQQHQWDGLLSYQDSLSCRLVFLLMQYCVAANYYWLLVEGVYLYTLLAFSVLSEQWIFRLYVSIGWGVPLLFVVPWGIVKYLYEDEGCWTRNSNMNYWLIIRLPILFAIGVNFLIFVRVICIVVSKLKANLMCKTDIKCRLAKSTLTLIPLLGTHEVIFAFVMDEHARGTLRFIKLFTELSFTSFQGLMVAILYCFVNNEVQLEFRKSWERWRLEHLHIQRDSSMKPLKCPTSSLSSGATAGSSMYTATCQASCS
- experimental_details: Functional cAMP activity in the presence of 1% HSA
- Format: cell-based
- conditions_used: HEK-293 clonal cell line, 1% HSA, geometric mean of relative EC50; read-out: cAMP Rel EC50, hGLP-1R
Starred links: 1 amine or outer side, 2 acyl side, 3 side chain; linkers in the order of their positions; H or OH if unused. Non-standard residues stand in square brackets, D forms with d. Groups on a side chain read outwards from the residue. No end group written: not given here. *: point of attachment. C18 diacid = O=C(O)CCCCCCCCCCCCCCCCC(=O)*; αMePhe(2-F) = C[C@](N)(Cc1ccccc1F)C(=O)O; γGlu = O=C(O)[C@H](CCC(=O)[*:2])N[*:1]; αMeY = C[C@](N)(Cc1ccc(O)cc1)C(=O)O; 4Pal = N[C@@H](Cc1ccncc1)C(=O)O; αMeL = CC(C)C[C@](C)(N)C(=O)O; αMeS = C[C@](N)(CO)C(=O)O; Orn = NCCC[C@H](N)C(=O)O; AEEA = NCCOCCOCC(=O)O; Aib = CC(C)(N)C(=O)O
Entries and their measured EC50 follow.

Record request: EC50 value, item H-Y[Aib]QGT[αMePhe(2-F)]TSD[4Pal][αMeS]I[αMeL]LD[Orn]K([AEEA-γGlu-C18 diacid])AA[Aib]EFI[dE][αMeY]LIEGGPSSGAPPPSGEE-NH2 [Example 703] 27.1 nM

Record request: EC50 value, item H-Y[Aib]QGT[αMePhe(2-F)]TSDYSI[αMeL]LDKK([AEEA-γGlu-C18 diacid])AQ[Aib]AFIEYLLETGPSSGAPPPSEG-NH2 [Example 417] 67 nM

Record request: EC50 value, item Y[Aib]QGT[αMePhe(2-F)]TSD[4Pal][αMeS]I[αMeL]LD[Orn]K([AEEA-γGlu-C18 diacid])AA[Aib]EFI[dE][αMeY]LIEGGPSSGEPPPSGTE-NH2 [Example 719] 23.2 nM

Record request: EC50 value, item H-Y[Aib]QGT[αMePhe(2-F)]TSD[4Pal]SI[αMeL]LDKK([γGlu-γGlu-C18 diacid])AQ[Aib]AFIEYLSEGGPSSGEPPPSGSEE-NH2 [Example 632] 88.2 nM

Record request: EC50 value, item H-Y[Aib]QGT[αMePhe(2-F)]TSD[4Pal]SI[αMeL]LDKK([γGlu-γGlu-C18 diacid])AQ[Aib][Orn]FIEYLEEGGPSSGEPPPSGSEE-NH2 [Example 635] 53.9 nM

We now examine a further substance.
Record request: EC50 value, item H-Y[Aib]QGT[αMePhe(2-F)]TSD[4Pal]SI[αMeL]LDKK([γGlu-γGlu-C18 diacid])AQ[Aib]AFIEYLEEGGPSSGEPPPSGSEE-NH2 [Example 630] 74.5 nM
